Assay: n-octanol/aqueous buffer solution partition coefficient, log P of the compound at pH 6.8 after 4 hrs by HPLC method
Type: physicochemical
Measured logD at 4 h, listed per entry.

Answered examples (6):
CSCC[C@H](NC(=O)[C@]12CCC(C)(C)C[C@H]1C1=CC[C@@H]3[C@@]4(C)Cc5nccnc5[C@@](C)(CO)[C@@H]4CC[C@@]3(C)[C@]1(C)CC2)C(=O)O: -0.2
CC1(C)CC[C@]2(C(=O)O)CC[C@]3(C)C(=CC[C@@H]4[C@@]5(C)Cc6nccnc6[C@@](C)(COC(=O)C6CCCCC6C(=O)O)[C@@H]5CC[C@]43C)[C@@H]2C1 (stereo partly specified): -0.33
CC1(C)CC[C@]2(C(=O)n3ccnc3)CC[C@]3(C)C(=CC[C@@H]4[C@@]5(C)CC[C@H](O)[C@@](C)(CO)[C@@H]5CC[C@]43C)[C@@H]2C1: -0.4
CC1(C)CC[C@]2(C(=O)O)CC[C@]3(C)C(=CC[C@@H]4[C@@]5(C)Cc6nccnc6[C@@](C)(COC(=O)CCC(=O)O)[C@@H]5CC[C@]43C)[C@@H]2C1: -0.28
CC1(C)CC[C@]2(C(=O)On3nnc4ccccc43)CC[C@]3(C)C(C(=O)C[C@@H]4[C@@]5(C)CCC(=O)[C@@](C)(CO)[C@@H]5CC[C@]43C)[C@@H]2C1 (stereo partly specified): 0.14
CC1(C)CC[C@]2(C(=O)O)CC[C@]3(C)C(=CC[C@@H]4[C@@]5(C)Cc6nccnc6[C@@](C)(COC(=O)c6ccccc6C(=O)O)[C@@H]5CC[C@]43C)[C@@H]2C1: -0.66

Req: Give the measured logD at 4 h of `CC1(C)CC[C@]2(C(=O)N[C@@H](Cc3ccc(O)cc3)C(=O)O)CC[C@]3(C)C(=CC[C@@H]4[C@@]5(C)Cc6nccnc6[C@@](C)(CO)[C@@H]5CC[C@]43C)[C@@H]2C1` .
Resp: -0.03

Req: Do the same for `CC1(C)CC[C@]2(C(=O)OCc3ccccc3)CC[C@]3(C)C(=CC[C@@H]4[C@@]5(C)Cc6nccnc6[C@@](C)(CO)[C@@H]5CC[C@]43C)[C@@H]2C1` please
Resp: -0.54

Req: Next up: `CC1(C)CC[C@]2(C(=O)N[C@@H](CC(=O)O)C(=O)O)CC[C@]3(C)C(=CC[C@@H]4[C@@]5(C)Cc6nccnc6[C@@](C)(CO)[C@@H]5CC[C@]43C)[C@@H]2C1`
Resp: -0.39

Req: Also `CC1(C)CC[C@]2(C(=O)On3nnc4ccc(Cl)cc43)CC[C@]3(C)C(=CC[C@@H]4[C@@]5(C)CC[C@H](O)[C@@](C)(CO)[C@@H]5CC[C@]43C)[C@@H]2C1` ?
Resp: -0.75

Req: # repeat for `CC1(C)CC[C@]2(C(=O)O)CC[C@]3(C)C(=CC[C@@H]4[C@@]5(C)Cc6nccnc6[C@@](C)(CO)[C@@H]5CC[C@]43C)[C@@H]2C1`
Resp: 0.24

Req: Lookup `CC(C)[C@H](NC(=O)[C@]12CCC(C)(C)C[C@H]1C1=CC[C@@H]3[C@@]4(C)Cc5nccnc5[C@@](C)(CO)[C@@H]4CC[C@@]3(C)[C@]1(C)CC2)C(=O)O`
Resp: -0.78

Req: // same read-out, input: `CC(C)C[C@H](NC(=O)[C@]12CCC(C)(C)C[C@H]1C1=CC[C@@H]3[C@@]4(C)Cc5nccnc5[C@@](C)(CO)[C@@H]4CC[C@@]3(C)[C@]1(C)CC2)C(=O)O`
Resp: 0.08

Req: Quick one: `CC1(C)CC[C@]2(C(=O)On3nnc4cccnc43)CC[C@]3(C)C(=CC[C@@H]4[C@@]5(C)CC[C@H](O)[C@@](C)(CO)[C@@H]5CC[C@]43C)[C@@H]2C1`
Resp: -0.23

Req: Further, for `CN(C)CCCOC(=O)[C@]12CCC(C)(C)C[C@H]1C1=CC[C@@H]3[C@@]4(C)Cc5nccnc5[C@@](C)(CO)[C@@H]4CC[C@@]3(C)[C@]1(C)CC2` ?
Resp: -1.25

Req: Same thing, different molecule: `CC1(C)CC[C@]2(C(=O)N[C@@H](CO)C(=O)O)CC[C@]3(C)C(=CC[C@@H]4[C@@]5(C)Cc6nccnc6[C@@](C)(CO)[C@@H]5CC[C@]43C)[C@@H]2C1`
Resp: -0.11

Req: Cool, now `CC1(C)CC[C@]2(C(=O)N[C@@H](CCC(=O)O)C(=O)O)CC[C@]3(C)C(=CC[C@@H]4[C@@]5(C)Cc6nccnc6[C@@](C)(CO)[C@@H]5CC[C@]43C)[C@@H]2C1`
Resp: -0.66

Reference for the values: ChEMBL document CHEMBL4325867
